molecular target: SIK2 (human); assay: radiometric filter-binding kinase assay, Kinase HotSpot; details: compound 0.5 µM; ATP 10 µM
Measured Metric: residual activity (%)
Answer format: numeric, % implied, no suffix.

Some entries whose results are on file:
O=C1Cc2c([nH]c3ccc(Br)cc23)-c2ccccc2N1; 63.5
COc1ccc(OC)c2c(=S)c3ccccc3[nH]c12; 114
CC(C)c1nn(-c2c(Cl)cccc2Cl)c2nc(Cc3ccc(OCCO)cc3)nc(O)c12; 116
COc1cc2ncnc(N3CCN(C(=O)Nc4ccc(Oc5ccccc5)cc4)CC3)c2cc1OC; 96
O=C1NC(=O)C(c2cn(CCCO)c3ncccc23)=C1c1cnccn1; 101
O=C1NC(=O)/C(=C\c2ccc3nccnc3c2)S1; 102
CC(C)[C@H](CO)Nc1nc(Nc2cc(N)cc(Cl)c2)c2ncn(C(C)C)c2n1; 104
CCN(CC)CCCCN1c2ccccc2Oc2ccc(Cl)cc21; 111
CCn1cnc2c(Nc3cccc(Cl)c3)nc(N[C@@H]3CCCC[C@@H]3N)nc21; 89.1
Cn1cnc2cc3c(Nc4cccc(Br)c4)ncnc3cc21; 101

Input line: Under SIK2 (human): residual activity value of Cc1nc2cc3nc(-c4cccs4)cnc3cc2n1C ?
Output line: 112

Input line: Under SIK2 (human): residual activity value of O=C(CCCc1ccc(-c2ccccc2F)cc1)Nc1ccc(O)cc1 ?
Output line: 102

Input line: Under SIK2 (human): residual activity value of Cn1sc(=O)n(Cc2ccccc2)c1=O ?
Output line: 98.6

Input line: Under SIK2 (human): residual activity value of O=C(O)/C=C/c1cc(Br)c(Br)c(Br)c1Br ?
Output line: 107

###

molecular target: HIPK4 (human) (UniProt Q8NE63); assay: radiometric filter-binding kinase assay, Kinase HotSpot; details: compound 0.5 µM; ATP 10 µM
Sequence (Q8NE63 whole entry, looked up): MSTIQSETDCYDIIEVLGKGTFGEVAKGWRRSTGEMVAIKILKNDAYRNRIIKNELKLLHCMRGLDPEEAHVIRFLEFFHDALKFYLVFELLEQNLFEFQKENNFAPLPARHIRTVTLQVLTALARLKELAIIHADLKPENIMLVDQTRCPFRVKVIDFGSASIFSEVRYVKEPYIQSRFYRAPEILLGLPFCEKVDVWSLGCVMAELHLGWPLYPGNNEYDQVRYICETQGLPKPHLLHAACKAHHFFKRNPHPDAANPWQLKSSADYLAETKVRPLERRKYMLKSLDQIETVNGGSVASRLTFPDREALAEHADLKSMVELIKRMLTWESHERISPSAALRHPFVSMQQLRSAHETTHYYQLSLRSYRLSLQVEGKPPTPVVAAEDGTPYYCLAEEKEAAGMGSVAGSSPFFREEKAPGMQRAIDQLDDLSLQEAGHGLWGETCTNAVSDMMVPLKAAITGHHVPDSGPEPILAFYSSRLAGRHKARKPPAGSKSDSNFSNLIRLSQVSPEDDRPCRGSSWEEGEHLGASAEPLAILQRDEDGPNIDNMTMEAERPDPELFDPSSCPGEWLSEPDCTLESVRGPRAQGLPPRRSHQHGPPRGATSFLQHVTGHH
# residual activity listing for each entry below
Answer format: numeric, % implied, no suffix.

O=C1Nc2ccccc2/C1=C1/Nc2ccccc2/C1=N\OCCC(O)CO (centres undefined); 108
Nc1nccc(-c2c(-c3ccc(F)cc3)ncn2C2CCNCC2)n1; 96.6

Input line: Can you look up the measured residual activity of O=C(Nc1cccc(Nc2cc(Nc3cccc(C(F)(F)F)c3)ncn2)c1)C1CC1 for me?
Output line: 101

Input line: Can you look up the measured residual activity of CC(=O)O/N=C1\C(=C2\C(=O)Nc3cc(Br)ccc32)Nc2ccccc21 for me?
Output line: 95.5

Input line: Can you look up the measured residual activity of Cn1cnc2cc3c(Nc4cccc(Br)c4)ncnc3cc21 for me?
Output line: 88.6

Input line: Can you look up the measured residual activity of CN(C)C[C@H]1CCn2c(c(C3=C(c4cn(C)c5ccccc45)C(=O)NC3=O)c3ccccc32)C1 for me?
Output line: 95.7

Input line: Can you look up the measured residual activity of O=C1NC(=O)C(c2cn(CCCO)c3ncccc23)=C1c1cnccn1 for me?
Output line: 104

Input line: Can you look up the measured residual activity of O=C1NC(=O)/C(=C\c2ccc3nccnc3c2)S1 for me?
Output line: 95

Input line: Can you look up the measured residual activity of CN([C@@H](Cc1ccc(OS(=O)(=O)c2cccc3cnccc23)cc1)C(=O)N1CCN(c2ccccc2)CC1)S(=O)(=O)c1cccc2cnccc12 for me?
Output line: 105

Input line: Can you look up the measured residual activity of CCn1cnc2c(Nc3cccc(Cl)c3)nc(N[C@@H]3CCCC[C@@H]3N)nc21 for me?
Output line: 88.4

Input line: Can you look up the measured residual activity of O=C(O)/C=C/c1cc(Br)c(Br)c(Br)c1Br for me?
Output line: 102

Input line: Can you look up the measured residual activity of O=C1NC(=O)C(c2c[nH]c3ccccc23)=C1c1c[nH]c2ccccc12 for me?
Output line: 109

Input line: Can you look up the measured residual activity of Nc1nnc2[nH]c3ccccc3nc1-2 for me?
Output line: 95.8

Input line: Can you look up the measured residual activity of O=C1Nc2ccccc2/C1=C1\Nc2ccccc2\C1=N/O for me?
Output line: 102

###

target: NEK1 (human); assay: radiometric filter-binding kinase assay, Kinase HotSpot; settings: compound 0.5 µM; ATP 10 µM
Measured Metric: residual activity (%)
Answer format: numeric, % implied, no suffix.

Input line: Can you look up the measured residual activity of CN(C)C[C@H]1CCn2c(c(C3=C(c4cn(C)c5ccccc45)C(=O)NC3=O)c3ccccc32)C1 for me?
Output line: 105

###

# residual activity listing for each entry below
biological target: UniProt P29376; experiment: radiometric filter-binding kinase assay, Kinase HotSpot; details: compound 0.5 µM; ATP 10 µM
Sequence (P29376 whole entry, looked up): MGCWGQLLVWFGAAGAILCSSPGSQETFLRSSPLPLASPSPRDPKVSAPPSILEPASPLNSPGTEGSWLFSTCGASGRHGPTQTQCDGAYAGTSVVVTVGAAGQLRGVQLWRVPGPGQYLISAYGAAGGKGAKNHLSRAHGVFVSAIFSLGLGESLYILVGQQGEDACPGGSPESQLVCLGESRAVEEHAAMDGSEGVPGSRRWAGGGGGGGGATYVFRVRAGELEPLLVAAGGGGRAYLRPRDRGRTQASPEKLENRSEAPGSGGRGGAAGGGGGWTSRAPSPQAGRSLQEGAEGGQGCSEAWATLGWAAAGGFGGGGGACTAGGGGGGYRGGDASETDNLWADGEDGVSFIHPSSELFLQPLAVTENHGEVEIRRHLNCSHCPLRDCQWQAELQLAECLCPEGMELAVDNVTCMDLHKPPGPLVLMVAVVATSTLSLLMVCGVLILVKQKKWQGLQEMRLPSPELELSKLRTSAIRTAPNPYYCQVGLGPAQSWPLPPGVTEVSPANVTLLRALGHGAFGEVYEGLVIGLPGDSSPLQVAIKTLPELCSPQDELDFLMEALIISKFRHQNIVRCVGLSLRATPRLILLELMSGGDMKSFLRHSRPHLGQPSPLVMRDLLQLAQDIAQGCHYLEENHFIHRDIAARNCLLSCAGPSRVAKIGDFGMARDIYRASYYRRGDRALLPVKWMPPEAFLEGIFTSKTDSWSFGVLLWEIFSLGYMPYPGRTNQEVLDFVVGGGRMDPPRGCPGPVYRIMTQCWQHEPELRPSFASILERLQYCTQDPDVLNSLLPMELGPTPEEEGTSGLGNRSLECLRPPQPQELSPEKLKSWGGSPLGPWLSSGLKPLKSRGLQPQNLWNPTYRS
Answer format: numeric, % implied, no suffix.

Cn1nc2c3c(cccc31)C(=O)c1ccccc1-2; 86.7
COc1cc2ncnc(N3CCN(C(=O)Nc4ccc(Oc5ccccc5)cc4)CC3)c2cc1OC; 89.8
COc1cc(OC)c(/C=C2\C(=O)Nc3ccccc32)c(OC)c1; 95.3
CN(C)C[C@H]1CCn2c(c(C3=C(c4cn(C)c5ccccc45)C(=O)NC3=O)c3ccccc32)C1; 101
CN([C@@H](Cc1ccc(OS(=O)(=O)c2cccc3cnccc23)cc1)C(=O)N1CCN(c2ccccc2)CC1)S(=O)(=O)c1cccc2cnccc12; 102

Input line: Can you look up the measured residual activity of Cn1sc(=O)n(Cc2ccccc2)c1=O for me?
Output line: 101

Input line: Can you look up the measured residual activity of O=C1Nc2ccccc2/C1=C1/Nc2ccccc2/C1=N\OCCC(O)CO (centres undefined) for me?
Output line: 34.7

Input line: Can you look up the measured residual activity of O=C1NC(=O)C(c2c[nH]c3ccccc23)=C1c1c[nH]c2ccccc12 for me?
Output line: 85.1

Input line: Can you look up the measured residual activity of O=C1Cc2c([nH]c3ccc(Br)cc23)-c2ccccc2N1 for me?
Output line: 91.8

###

target: PRKCE (human); test: radiometric filter-binding kinase assay, Kinase HotSpot; settings: compound 0.5 µM; ATP 10 µM
Measured Metric: residual activity (%)
Answer format: numeric, % implied, no suffix.

O=C(Nc1cccc(Nc2cc(Nc3cccc(C(F)(F)F)c3)ncn2)c1)C1CC1; 89.2
Nc1nccc(-c2c(-c3ccc(F)cc3)ncn2C2CCNCC2)n1; 105
CCN(CC)CCCCN1c2ccccc2Oc2ccc(Cl)cc21; 109
COc1cc2ncc(-c3ccccc3)nc2cc1OC; 87.9
Nc1nnc2[nH]c3ccccc3nc1-2; 86.4

Now consider the entry below.
Input line: Can you look up the measured residual activity of COc1ccc(OC)c2c(=S)c3ccccc3[nH]c12 for me?
Output line: 93.3

###

biological target: UniProt:Q13882; assay: radiometric filter-binding kinase assay, Kinase HotSpot; conditions: compound 0.5 µM; ATP 10 µM
Sequence (Q13882 whole entry, looked up): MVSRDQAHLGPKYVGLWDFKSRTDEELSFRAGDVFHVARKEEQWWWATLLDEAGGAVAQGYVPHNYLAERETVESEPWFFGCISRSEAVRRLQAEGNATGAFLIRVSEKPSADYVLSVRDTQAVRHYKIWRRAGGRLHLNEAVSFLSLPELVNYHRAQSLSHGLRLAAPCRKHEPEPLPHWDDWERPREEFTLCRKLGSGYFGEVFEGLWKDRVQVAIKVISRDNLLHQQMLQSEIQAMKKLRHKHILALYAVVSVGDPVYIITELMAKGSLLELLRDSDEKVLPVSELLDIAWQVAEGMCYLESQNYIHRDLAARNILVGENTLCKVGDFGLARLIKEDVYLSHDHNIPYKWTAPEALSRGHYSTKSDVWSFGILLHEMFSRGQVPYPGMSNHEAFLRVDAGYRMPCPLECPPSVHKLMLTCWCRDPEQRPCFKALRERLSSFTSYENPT
# residual activity listing for each entry below
Answer format: numeric, % implied, no suffix.

Some entries whose results are on file:
CCN(CC)CCCCN1c2ccccc2Oc2ccc(Cl)cc21; 95
CC(C)c1nn(-c2c(Cl)cccc2Cl)c2nc(Cc3ccc(OCCO)cc3)nc(O)c12; 87.1
Nc1nccc(-c2c(-c3ccc(F)cc3)ncn2C2CCNCC2)n1; 73.4
COc1cc2ncc(-c3ccccc3)nc2cc1OC; 80.8
COc1cc2ncnc(N3CCN(C(=O)Nc4ccc(Oc5ccccc5)cc4)CC3)c2cc1OC; 95.2
Oc1ccc(Nc2nc(-c3ccc(Cl)cc3)cs2)cc1; 87.4

Input line: Can you look up the measured residual activity of O=C1NC(=O)C(c2c[nH]c3ccccc23)=C1c1c[nH]c2ccccc12 for me?
Output line: 84.6

Input line: Can you look up the measured residual activity of O=C(O)/C=C/c1cc(Br)c(Br)c(Br)c1Br for me?
Output line: 95

Input line: Can you look up the measured residual activity of CCn1cnc2c(Nc3cccc(Cl)c3)nc(N[C@@H]3CCCC[C@@H]3N)nc21 for me?
Output line: 82.1

###

# residual activity listing for each entry below
biological target: TNK2 (human) (UniProt Q07912); assay: radiometric filter-binding kinase assay, Kinase HotSpot; conditions: compound 0.5 µM; ATP 10 µM
Sequence (Q07912 whole entry, looked up): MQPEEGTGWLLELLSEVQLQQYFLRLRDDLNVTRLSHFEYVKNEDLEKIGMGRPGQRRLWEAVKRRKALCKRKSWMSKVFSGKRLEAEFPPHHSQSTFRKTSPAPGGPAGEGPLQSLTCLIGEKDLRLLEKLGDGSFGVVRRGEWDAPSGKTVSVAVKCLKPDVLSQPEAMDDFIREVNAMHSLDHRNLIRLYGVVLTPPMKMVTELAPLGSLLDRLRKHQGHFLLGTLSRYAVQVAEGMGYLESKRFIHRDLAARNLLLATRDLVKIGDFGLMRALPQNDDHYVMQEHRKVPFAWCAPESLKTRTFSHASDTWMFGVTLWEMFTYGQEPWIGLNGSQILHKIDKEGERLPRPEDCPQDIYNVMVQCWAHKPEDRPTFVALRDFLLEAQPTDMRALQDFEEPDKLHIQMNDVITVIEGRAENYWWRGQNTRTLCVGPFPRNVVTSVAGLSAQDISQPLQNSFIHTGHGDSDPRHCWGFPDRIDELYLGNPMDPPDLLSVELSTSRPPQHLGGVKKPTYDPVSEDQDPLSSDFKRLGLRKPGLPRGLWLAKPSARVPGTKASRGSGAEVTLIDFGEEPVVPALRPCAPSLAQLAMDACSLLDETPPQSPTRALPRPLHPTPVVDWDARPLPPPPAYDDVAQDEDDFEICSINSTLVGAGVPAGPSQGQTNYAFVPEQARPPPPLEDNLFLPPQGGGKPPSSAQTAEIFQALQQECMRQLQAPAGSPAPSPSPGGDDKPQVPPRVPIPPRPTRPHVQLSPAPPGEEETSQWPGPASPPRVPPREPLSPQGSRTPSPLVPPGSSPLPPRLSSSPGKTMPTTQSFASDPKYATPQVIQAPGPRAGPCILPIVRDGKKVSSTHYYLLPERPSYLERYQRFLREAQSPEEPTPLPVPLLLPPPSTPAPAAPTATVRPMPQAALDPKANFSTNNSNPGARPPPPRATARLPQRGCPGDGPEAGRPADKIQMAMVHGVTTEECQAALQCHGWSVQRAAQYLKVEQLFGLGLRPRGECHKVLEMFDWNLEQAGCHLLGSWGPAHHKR
Answer format: numeric, % implied, no suffix.

O=C1NC(=O)C(c2cn(CCCO)c3ncccc23)=C1c1cnccn1; 90.7
CCn1cnc2c(Nc3cccc(Cl)c3)nc(N[C@@H]3CCCC[C@@H]3N)nc21; 92.4
COc1cc2ncc(-c3ccccc3)nc2cc1OC; 93.2
COc1ccc(OC)c2c(=S)c3ccccc3[nH]c12; 96.3
COc1ccc(CNC(=O)Nc2ncc([N+](=O)[O-])s2)cc1; 96.8
Cc1nc2cc3nc(-c4cccs4)cnc3cc2n1C; 100

Input line: Can you look up the measured residual activity of Oc1ccc(Nc2nc(-c3ccc(Cl)cc3)cs2)cc1 for me?
Output line: 103

Input line: Can you look up the measured residual activity of CC(C)[C@H](CO)Nc1nc(Nc2cc(N)cc(Cl)c2)c2ncn(C(C)C)c2n1 for me?
Output line: 47.8

Input line: Can you look up the measured residual activity of O=C(Nc1cccc(Nc2cc(Nc3cccc(C(F)(F)F)c3)ncn2)c1)C1CC1 for me?
Output line: 98.7
